Let's look at some compounds and their measured Average Response HSP27.
Target: MK2 (Rattus norvegicus, UniProt Q80ZF4)
Construct: endogenous in cells; host or cells: rat microvascular endothelial cells (RMVEC)
Sequence (Q80ZF4 1-386): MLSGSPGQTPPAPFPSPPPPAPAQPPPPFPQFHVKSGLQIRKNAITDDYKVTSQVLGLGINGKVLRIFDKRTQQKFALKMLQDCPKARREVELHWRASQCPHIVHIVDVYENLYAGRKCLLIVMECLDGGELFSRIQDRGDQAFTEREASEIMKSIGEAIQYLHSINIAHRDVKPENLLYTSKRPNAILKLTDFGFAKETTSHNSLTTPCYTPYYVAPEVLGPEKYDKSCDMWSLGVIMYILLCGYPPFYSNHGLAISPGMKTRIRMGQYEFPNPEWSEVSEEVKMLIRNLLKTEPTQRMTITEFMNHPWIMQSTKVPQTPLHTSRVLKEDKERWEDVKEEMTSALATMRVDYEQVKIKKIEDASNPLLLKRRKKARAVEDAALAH
Assay: ELISA MK2 cell-based activity assay (phospho-HSP-27), RMVEC cells
Conditions: compound 20 μM, 30 minutes, 37° C., phospho-HSP27 ELISA
Structures can show the parent of a compound that is named as a salt.
value.type: Average Response HSP27 (pg/mL)

{"compound": "CN(C)Cc1c(C(=O)NCCOc2ccc(C(=O)NO)cc2)oc2ccccc12 [Compound 54, Abexinostat]", "experimental.result": 48.4}
{"compound": "COc1ccc(-c2ccc3ncc4c(c3c2)n(-c2ccc(N3CCNCC3)c(C(F)(F)F)c2)c(=O)n4C)cn1 [Compound 14, Bgt-226]", "experimental.result": 19.4}
{"compound": "OC[C@@H](O)CN1CCN(c2ccccc2)CC1 [Levodropropizine]", "experimental.result": 47.1}
{"compound": "NC(=O)[C@@H](CCC(F)(F)F)N(Cc1ccc(-c2ncon2)cc1F)S(=O)(=O)c1ccc(Cl)cc1 [Compound 115, Avagacestat]", "experimental.result": 5.7}
{"compound": "Cc1cc(Nc2cc(N3CCN(C)CC3)nc(/C=C/c3ccccc3)n2)n[nH]1 [Compound 56, Enmd-2076]", "experimental.result": 4.6}
{"compound": "O=C(Nc1ccc(-c2ccnc(Nc3ccc(N4CCOCC4)cc3)n2)cc1)C1CCCN1 (centres unmarked) [Compound 78, Xl-019]", "experimental.result": 15.2}
{"compound": "Cc1cc(N2CCN([C@@H]3CN[C@H](C(=O)N4CCSC4)C3)CC2)n(-c2ccccc2)n1 [Teneligliptin hydrobromide]", "experimental.result": 4.0}
{"compound": "Fc1ccccc1-c1nc2ccn(Cc3ccc(-c4ccc(C(F)(F)F)cc4C(F)(F)F)nn3)cc-2n1 [Compound 66, Tegobuvir]", "experimental.result": 26.2}
{"compound": "Cn1cc(-c2ccc(F)c(C(F)(F)F)c2)nc1C1CCN(c2ncnc3[nH]ncc23)CC1 [Compound 30, Ly-2584702]", "experimental.result": 0.0}
{"compound": "FC(F)(F)c1ccc(/C=C/c2nc(COc3ccc(CCCCn4ccnn4)cc3)co2)cc1 [Compound 37, Mubritinib]", "experimental.result": 34.0}
{"compound": "Cl.Cl.Cl.O[C@@H](COc1cccc2ncccc12)CN1CCN([C@@H]2c3ccccc3[C@@H]3[C@H](c4ccccc42)C3(F)F)CC1 [Zosuquidar (LY335979) 3HCl]", "experimental.result": 11.8}
{"compound": "O=C(O)CCn1c2c(c3ccccc31)C[C@H](NS(=O)(=O)c1ccc(F)cc1)CC2 [Compound 93, Ramatroban]", "experimental.result": 27.6}
{"compound": "CCc1cc(/C(C)=N/OCc2ccc(C3CCCCC3)c(C(F)(F)F)c2)ccc1CN1CC(C(=O)O)C1 [Compound 76, Siponimod]", "experimental.result": 6.6}
{"compound": "O=C1[C@H]2CCCC[C@H]2C(=O)N1CCCCN1CCN(c2nsc3ccccc23)CC1 [Perospirone hydrochloride]", "experimental.result": 43.2}
